Tested on: NS3 protease domain from GT 1a HCV-infected subjects in replicon shuttle vector
Assay: Replicon transient transfection EC50, NS3 protease domain from subjects cloned into shuttle vector, GT 1a
Assay type: cell-based
Conditions: Hepatitis C virus, GT1A, 96 h, read-out: EC50 Day 4, Subject L, GT 1a, 100/100 mg dose group, Day 4 sample
Description: Viral RNA was isolated from the plasma of HCV-infected patients at baseline (Day 1) and Day 4 by using an automated (Abbott m2000) or manual (QIAgen QIAamp Viral RNA Mini Kit) method. Amplicons containing the NS3-4A region were generated by RT-PCR, and PCR fragments containing the first 250 amino acids of NS3 were generated in a second round of PCR. […]
Observable: EC50 (nM)

Chemical Structure: Cc1cnc(C(=O)N[C@H]2CCCCC/C=C\[C@@H]3C[C@@]3(C(=O)NS(=O)(=O)C3CC3)NC(=O)[C@@H]3C[C@@H](Oc4nc5ccccc5c5ccccc45)CN3C2=O)cn1
Unit Descriptor: nM
Test Value: 8.84
